For each of the compounds below, state its pIC50.
Experimental target: Ba/F3 BCR-ABL1 A424T (Homo sapiens, UniProt P00519+P11274, A424T)
Construct: BCR (N-terminal fusion partner of the oncoprotein); expressed in transfected cells; host or cells: Ba/F3 (lentiviral transduction, monoclonal line)
Sequence (P00519 28-1130 A424T limits assumed, one chain of several): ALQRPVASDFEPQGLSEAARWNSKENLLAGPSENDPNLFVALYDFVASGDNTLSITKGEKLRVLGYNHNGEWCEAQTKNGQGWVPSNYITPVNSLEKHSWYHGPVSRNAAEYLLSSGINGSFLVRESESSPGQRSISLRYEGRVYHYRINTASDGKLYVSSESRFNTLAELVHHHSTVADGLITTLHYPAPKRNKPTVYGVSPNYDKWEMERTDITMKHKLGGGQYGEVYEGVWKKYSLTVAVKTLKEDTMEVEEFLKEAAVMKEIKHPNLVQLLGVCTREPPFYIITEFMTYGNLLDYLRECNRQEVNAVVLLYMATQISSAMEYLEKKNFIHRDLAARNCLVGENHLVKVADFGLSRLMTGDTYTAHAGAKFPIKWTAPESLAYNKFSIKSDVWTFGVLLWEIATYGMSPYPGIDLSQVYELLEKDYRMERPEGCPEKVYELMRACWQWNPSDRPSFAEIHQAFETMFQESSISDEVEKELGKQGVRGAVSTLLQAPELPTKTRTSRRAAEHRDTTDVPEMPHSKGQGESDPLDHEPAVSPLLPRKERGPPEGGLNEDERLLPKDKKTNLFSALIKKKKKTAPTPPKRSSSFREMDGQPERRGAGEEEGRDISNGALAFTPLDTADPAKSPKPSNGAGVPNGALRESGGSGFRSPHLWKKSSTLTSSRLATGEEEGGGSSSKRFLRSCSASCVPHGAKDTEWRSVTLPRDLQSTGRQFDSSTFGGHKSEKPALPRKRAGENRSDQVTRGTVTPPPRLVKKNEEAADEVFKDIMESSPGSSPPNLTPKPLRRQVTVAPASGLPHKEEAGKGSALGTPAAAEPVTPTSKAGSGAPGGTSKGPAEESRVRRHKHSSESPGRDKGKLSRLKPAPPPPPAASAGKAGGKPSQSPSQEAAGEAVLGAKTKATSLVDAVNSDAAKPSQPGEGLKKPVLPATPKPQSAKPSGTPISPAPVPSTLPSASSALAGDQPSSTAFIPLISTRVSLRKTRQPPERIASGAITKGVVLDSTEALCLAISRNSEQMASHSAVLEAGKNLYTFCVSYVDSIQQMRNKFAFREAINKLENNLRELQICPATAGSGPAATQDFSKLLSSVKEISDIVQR
Assay info: Cell growth inhibitory activity assay (CellTiter-Glo), Ba/F3 BCR-ABL1 A424T cells
Assay type: cell-based
Experimental conditions: 72 h, CTG cell viability
pIC50: −log10 of the molar value.

IN: Tell me the measured pIC50 of C[C@@H]1COCc2nc3cc(C(=O)Nc4ccc(OC(F)(F)Cl)cc4)cc(-c4cnccn4)c3n21 , please.
OUT: 6.00 to 7.30

IN: Tell me the measured pIC50 of Cc1cc(C)nc(-n2cc3c(n2)-c2cc(-c4cc(C(=O)Nc5ccc(OC(F)(F)Cl)cc5)cc5nc6n(c45)[C@H](C)COC6)cnc2C3)n1 , please.
OUT: ≥ 8.30

IN: Tell me the measured pIC50 of C[C@@H]1CCSc2nc3cc(C(=O)Nc4ccc(OC(F)(F)Cl)cc4)cc(-c4cnc5c(c4)C(=O)N(C)C5)c3n21 , please.
OUT: 6.00 to 7.30

IN: Tell me the measured pIC50 of C[C@@H]1COCc2nc3cc(C(=O)Nc4ccc(OC(F)(F)Cl)cc4)cc(-c4cnc5c(c4)-c4n[nH]cc4C5)c3n21 , please.
OUT: 7.30 to 8.30

IN: Tell me the measured pIC50 of C[C@@H]1COCc2nc3cc(C(=O)Nc4ccc(OC(F)(F)Cl)cc4)cc(-c4cnc5c(c4)-c4nn(-c6ccccn6)cc4C5)c3n21 , please.
OUT: 7.30 to 8.30
